Reference for the values: the supplement of paper PMC7125110

B1: glmS ribozyme (parent)
chain: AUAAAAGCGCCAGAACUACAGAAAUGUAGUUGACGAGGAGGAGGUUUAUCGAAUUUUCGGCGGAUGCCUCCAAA

Variants of: B1
assay_info: self-cleavage kobs at 2500 uM GlcN6P; higher = faster cleavage; RNA array
experimental_parameters: with glucosamine-6-phosphate
Variants at the floor of the assay were thinned out.
readout_label: self-cleavage kobs at 2500 uM GlcN6P (s⁻¹)
Give just the numeric value; s⁻¹ need not be written.

Measured self-cleavage kobs at 2500 uM GlcN6P of AUAAAAGCGCCAGAAGUACAGAAAUGUAGUUGACGAGGAUGAGGUUUAUCGAAUAUUCGUCGGAUGCCUCCAAA [C16G G40U U55A G60U] : 0.000989

Measured self-cleavage kobs at 2500 uM GlcN6P of AUAAAAGCGACAGAACUACAGAAAUGUACUUGACGAGGAGGAGGUUUAUCGAAUAUUCGGCGGAUGCCUGCAAA [C10A G29C U55A C70G] : 9.79e-05

Measured self-cleavage kobs at 2500 uM GlcN6P of AUAAAAGCGCCAGAACUACAGAAAUGUAGUUGACGAGGAGGAGGUUUAUCGGAUUUUCGGCGGAAGCCUCCAAA [A52G U65A] : 0.000103

Measured self-cleavage kobs at 2500 uM GlcN6P of AUAAAAGCGCCAGAACUACAGAAAUGUAGUUGACGAGGAAGAGGGUUAUCGAAUUUUCGGCGGAUGCCUCCAAA [G40A U45G] : 0.000133

Measured self-cleavage kobs at 2500 uM GlcN6P of AUAAAAGCGCCAGAACUACAGAAAUGUAGUUGACGAGGGGGAGGUUUAUCGAGUUUUCGGCGGAUGCCUCCAAA [A39G A53G] : 0.0404

Measured self-cleavage kobs at 2500 uM GlcN6P of AUAAAAGCGCCAGAACUACAGAAAUGUAGUUGACGAGGUGGAGGUUUAUCGAAUUUGCGGCGGAUGCCUCCAAA [A39U U57G] : 3.12e-05

Measured self-cleavage kobs at 2500 uM GlcN6P of AUAAAAGCGCUGGAGCUACAGAAAUGUAGUUGACGAGGAGGAGGUUUAUCGAAUUUUCGGCGGAUGCCUCCAAA [C11U A12G A15G] : 0.000326

Measured self-cleavage kobs at 2500 uM GlcN6P of AUAAAAGCGCCAGAACUACAGAAAUGUAGUUGACGAGGUGGAGGUUUAUCGAAUUUUCGGCGGAUCACUCCAAA [A39U G66C C67A] : 0.000248

Measured self-cleavage kobs at 2500 uM GlcN6P of AUAAAAGCGCCAGAACUACAGAAAUGUAUUUGACGAGGGGGAGGUUUAUCGAAUUUUCGGCGGAUGCCUCCAAA [G29U A39G] : 0.0072

Measured self-cleavage kobs at 2500 uM GlcN6P of AUAAAAGCGCUAGGACUACAGAAAUGUAGUUGACGAGGAGGAGGUUUAUCGAAUUUUCGGCGGAUGCCUCCAAA [C11U A14G] : 0.00674

Measured self-cleavage kobs at 2500 uM GlcN6P of AUAAAAGCGCCAGAACUACAGAAAUGUAGUGGACGUGGAGGAGGUUUAUAGAAUUUUCGGCGGAUGCCUCGAAA [U31G A36U C50A C71G] : 0.000265

Measured self-cleavage kobs at 2500 uM GlcN6P of AUAAAAGCGCCAGAACUACAGAAAUGUAGUUGACGAAGAAGAGGUUUAUCGAAUUAUCGGCGGAUGCCUCCAAA [G37A G40A U56A] : 0.000109

Measured self-cleavage kobs at 2500 uM GlcN6P of AUAAAAGCGCCCGGACUACAGAAAUGUAGUUGACGAGGAGGAGGUUUAUCGAAUUUUCGGCGGAUGCCGCCAAA [A12C A14G U69G] : 0.000112

Measured self-cleavage kobs at 2500 uM GlcN6P of AUAAAAGCGCCAGAGCUACAGAAAUGUAGUUGACGAGGAGGAGGUUUAUCGAAUUUUCGGCGGAUGCAUCCAAA [A15G C68A] : 7.32e-05

Measured self-cleavage kobs at 2500 uM GlcN6P of AUAAAAGCGCCAGAACUACAGAAAUGUAGUUGACGAGGAUGACGUUUAUCGAAUUUUCGGCGGAUGCGUCCAAA [G40U G43C C68G] : 0.00105

Measured self-cleavage kobs at 2500 uM GlcN6P of AUAAAAGCGCCAGAACUACAGAAAUGUAGUUGACGAGGAGGAGGUUUAUCGAAUUUUCGGCGGAAGCCUGCAAA [U65A C70G] : 7.95e-05
